target: FLAG-tagged human Ang2 (human) (UniProt O15123); assay: competition ELISA: FLAG-hAng2 binding to coated hTie2-Fc
Sequence (O15123 19-496): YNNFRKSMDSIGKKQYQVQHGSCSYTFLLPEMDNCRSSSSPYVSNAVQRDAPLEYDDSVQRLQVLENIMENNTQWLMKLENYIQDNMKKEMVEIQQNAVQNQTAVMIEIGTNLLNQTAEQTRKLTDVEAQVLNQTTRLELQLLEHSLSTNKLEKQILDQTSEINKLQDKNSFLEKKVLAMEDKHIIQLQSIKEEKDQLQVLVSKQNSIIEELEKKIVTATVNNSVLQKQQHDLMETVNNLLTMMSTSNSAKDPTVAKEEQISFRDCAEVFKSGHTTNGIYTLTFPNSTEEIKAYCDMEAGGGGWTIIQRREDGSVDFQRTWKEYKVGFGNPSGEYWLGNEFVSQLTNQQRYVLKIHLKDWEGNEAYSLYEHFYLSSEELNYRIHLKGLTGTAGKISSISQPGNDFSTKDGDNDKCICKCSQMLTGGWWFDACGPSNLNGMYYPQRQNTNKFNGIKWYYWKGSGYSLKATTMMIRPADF
pIC50 values for the binders below.
Hey, just a heads up that pIC50 is the negative log base 10 of the concentration in molar.

binder	pIC50
VHH 00907 (VHH, not shown: small tags and cut ends) VHH: EVQLVESGGGLVQPGGSLRLSCAASGITLDDYAIGWFRQAPGKEREGVSSIRDNGGSTYYADSVKGRFTISSDNSKNTVYLQMNSLRPEDTAVYYCAAVPAGRLRFGEQWYPIYEYDAWGQGTLVTVSS	10.21

Now let's try a different one.
Which pIC50 is reported for this binder? VHH 00933 (VHH, not shown: small tags and cut ends) VHH: EVQLVESGGGLVQPGGSLRLSCAASGITLDDYAIGWFRQAPGKEREGVSAIRDNGGSTYYADSVKGRFTISSDNSKNTVYLQMNSLRPEDTAVYYCAAVPAGRLRYGEQWYPIYEYDAWGQGTLVTVSS 10.25
